Listing: HT-29 TGI of selected compounds
system: HT-29; assay: Inhibition of cells growth by colorimetric assay (SRB), HT-29; assay type: cell-based; conditions: HT-29; SRB, 48 hours exposure
propertyLabel: HT-29 TGI

>>> valuereported("C=CCOC(=O)Oc1c(C)c2c(c3c1[C@H]1SC[C@]4(NCCc5cc(O)c(OC)cc54)C(=O)OC[C@@H]3N3C1[C@H]1c4c(cc(C)c(OC)c4O)C[C@@H]([C@@H]3O)N1C)OCO2 (stereo partly shown)")
"3.73E-10"
>>> valuereported("COc1cc2c(cc1O)CCN[C@]21CS[C@@H]2c3c(OC(=O)CCCC[C@@H]4SCC5NC(=O)NC54)c(C)c4c(c3[C@H](COC1=O)N1C2[C@H]2c3c(cc(C)c(OC)c3OC(=O)CCCCC3SCC5NC(=O)NC53)C[C@@H]([C@@H]1C#N)N2C)OCO4 (stereo partly shown)")
"3.32E-07"
>>> valuereported("C=COC(=O)Oc1cc2c(cc1OC)[C@@]1(CS[C@@H]3c4c(OC(C)=O)c(C)c5c(c4[C@H](COC1=O)N1C3[C@H]3c4c(cc(C)c(OC)c4O)C[C@@H]([C@@H]1O)N3C)OCO5)N(C(=O)OC=C)CC2 (stereo partly shown)")
"8.07E-08"
>>> valuereported("COc1cc2c(cc1OC(=O)Cc1cc(=O)oc3cc(N(C)C)ccc13)CCN[C@]21CS[C@@H]2c3c(OC(C)=O)c(C)c4c(c3[C@H](COC1=O)N1C2[C@H]2c3c(cc(C)c(OC)c3OC(=O)Cc3cc(=O)oc5cc(N(C)C)ccc35)C[C@@H]([C@@H]1O)N2C)OCO4 (stereo partly shown) [Compound 78]")
"1.10E-07"

---

Recorded Toxicity Data Kidney values (Kidney) are given below.
propertyLabel: Toxicity Data Kidney

>>> valuereported("COc1cc2c(cc1O)CCN[C@]21CS[C@@H]2c3c(OC)c(C)c4c(c3[C@H](COC1=O)N1C2[C@H]2c3c(cc(C)c(OC)c3O)C[C@@H]([C@@H]1O)N2C)OCO4 (stereo partly shown)")
"1.26E-08"
>>> valuereported("COc1cc2c(cc1O)CCN(C)[C@]21CS[C@@H]2c3c(OC(C)=O)c(C)c4c(c3[C@H](COC1=O)N1C2[C@@H]2N[C@@H](Cc3cc(C)c(OC)c(O)c32)[C@@H]1O)OCO4 (stereo partly shown)")
"2.66E-13"
>>> valuereported("CCN1CCc2cc(O)c(OC)cc2[C@@]12CS[C@@H]1c3c(OC(C)=O)c(C)c4c(c3[C@H](COC2=O)N2C1[C@H]1c3c(cc(C)c(OC)c3O)C[C@@H]([C@@H]2O)N1C)OCO4 (stereo partly shown)")
"3.49E-09"
>>> valuereported("C=COC(=O)Oc1cc2c(cc1OC)[C@@]1(CS[C@@H]3c4c(OC(C)=O)c(C)c5c(c4[C@H](COC1=O)N1C3[C@H]3c4c(cc(C)c(OC)c4OC(=O)OC=C)C[C@@H]([C@@H]1O)N3C)OCO5)NCC2 (stereo partly shown)")
"1.35E-08"

---

tested on: P-388; test: Inhibition of cell growth by counting cells, P-388; assay type: cell-based, mouse; conditions: Mus musculus, P388, 72 h; three days of incubation; read-out: IC50 (molar) P-388
pIC50: −log10 of the molar value.
Recorded pIC50 by entry
propertyLabel: pIC50

>>> valuereported("COc1cc2c(cc1O)CCN[C@]21CS[C@@H]2c3c(OC(=O)C(F)(F)F)c(C)c4c(c3[C@H](COC1=O)N1C2[C@H]2c3c(cc(C)c(OC)c3O)C[C@@H]([C@@H]1C#N)N2C)OCO4 (stereo partly drawn)")
8.86
>>> valuereported("C=CCOC(=O)Oc1cc2c(cc1OC)[C@@]1(CS[C@@H]3c4c(OC(C)=O)c(C)c5c(c4[C@H](COC1=O)N1C3[C@H]3c4c(cc(C)c(OC)c4O)C[C@@H]([C@@H]1C#N)N3C(=O)OCC=C)OCO5)NCC2 (stereo partly drawn)")
8.97
>>> valuereported("C=CCOc1cc2c(cc1OC)[C@@]1(CS[C@@H]3c4c(OC(C)=O)c(C)c5c(c4[C@H](COC1=O)N1C3[C@H]3c4c(cc(C)c(OC)c4O)C[C@@H]([C@@H]1C#N)N3C)OCO5)NCC2 (stereo partly drawn)")
8.91

Taken from patent US7759345B2.
